Hey, just so you know, these numbers are from ChEMBL document CHEMBL1240409.

Entries and their GI50
System: DU-145
Test: Growth inhibition of human DU145 cells after 96 hrs by trypan blue exclusion assay
Format: functional
Settings: DU-145, 96 h
Express your answer in µM, writing the number without its unit.

// below: answered compounds
Form: compound = COc1cc(/C=C(/SCc2ccc(Br)cc2)C(=O)c2ccc(Br)cc2)cc([N+](=O)[O-])c1O ; GI50 = 25

Form: compound = O=C(O)c1ccc(C(=O)/C(=C\c2ccc(Br)c([N+](=O)[O-])c2)SCc2ccc(Br)cc2)cc1 ; GI50 = 1

Others:
Form: compound = Cc1ccc(CS/C(=C/c2cccc(Cl)c2Cl)C(=O)c2ccc(Cl)cc2)cc1 ; GI50 = 25

Form: compound = COc1ccc(C(=O)/C(=C\c2ccc(O)c([N+](=O)[O-])c2)SCc2ccc(Br)cc2)cc1 ; GI50 = 10

Form: compound = COc1ccccc1/C=C(/SCc1ccc(C)cc1)C(=O)c1ccc(Cl)cc1 ; GI50 = 10

Form: compound = Cc1ccc(S/C(=C/c2c[nH]c3ccc(Br)cc23)C(=O)c2ccc(Br)cc2)cc1 ; GI50 = 1

Form: compound = COc1ccc(C(=O)/C(=C\c2ccc(Br)cc2)S(=O)(=O)c2ccc(F)cc2)cc1 ; GI50 = 1

Form: compound = Cc1ccc(S/C(=C/c2c[nH]c3ccccc23)C(=O)c2ccc(Br)cc2)cc1 ; GI50 = 10
